Task for the reader: assign each of the following compounds its reported IC50.
Tested on: LNCaP
Assay: Cell growth inhibition assay, prostate cancer cell line LNCaP (medium with 10 ng/mL IL-6)
Assay type: cell-based
Settings: Homo sapiens, medium supplemented with 10 ng/mL of IL-6, 10,000 cells/well
Number only, in µM; omit the unit.

stdin: Query (compound): "CS(=O)(=O)Nc1ccc2cc(C(=O)Nc3cccc(-c4cccnc4C(F)(F)F)c3)[nH]c2c1" ; field requested: IC50
stdout: 4.6

stdin: Same question, "CNS(=O)(=O)Nc1ccc2cc(C(=O)Nc3cccc(-c4ccccc4C(F)(F)F)c3)[nH]c2c1" this time
stdout: 4.1

stdin: Would you mind doing "CN(c1cc2cc(C(=O)Nc3cc(Cl)cc(C(C)(C)c4ccc(Cl)cc4)c3)sc2cc1F)S(C)(=O)=O" as well?
stdout: 0.013

stdin: What would you report for "CC(C)Oc1cc(OC(F)(F)F)cc(C(C)(C)c2cc(Cl)cc(NC(=O)c3cc4cc(NS(=O)(=O)C5CCS(=O)(=O)CC5)ccc4s3)c2)c1" ?
stdout: 0.31

stdin: Also check "CS(=O)(=O)Nc1ccc2cc(C(=O)Nc3cc(-c4ccc(F)cc4F)cc(N4CCCCC4)c3)[nH]c2c1"
stdout: 7.8

====

What IC50 was measured for each of the following?
Test system: HEL92.1.7
Test: Cell growth inhibition assay, blood cancer cell line HEL92.1.7
Format: cell-based
Details: Homo sapiens, HEL 92.1.7, HEL92.1.7 blood cancer cell line
Write the answer as a number in µM, unit excluded.

stdin: Which IC50 value is on record for CC(C)Oc1cc(OC(F)(F)F)cc(C(C)(C)c2cc(Cl)cc(NC(=O)c3cc4cc(N(C)S(C)(=O)=O)c(F)cc4s3)c2)c1 [Example 215] ?
stdout: 0.007

stdin: Subsequent entry: Cc1noc(C)c1S(=O)(=O)Nc1ccc2sc(C(=O)Nc3cc(Cl)cc(C(C)(C)c4cc(OC(C)C)cc(OC(F)(F)F)c4)c3)cc2c1 [Example 199]
stdout: 0.68

stdin: Moving on to the next molecule: CCOc1cc(OC(F)(F)F)cc(C(C)(C)c2cc(Cl)cc(NC(=O)c3cc4ccc(NS(C)(=O)=O)cc4[nH]3)c2)c1 [Example 59]
stdout: 0.42

====

System: DU-145
Assay: Cell growth inhibition assay, prostate cancer cell line DU-145
Format: cell-based
Conditions: Homo sapiens, DU-145 prostate cancer cell line
Description: The inhibitory effects of the compounds of the present invention against the growth of cancer cells were evaluated as shown below. […] Subsequently, the cells were observed under microscope and drug precipitation and particular findings were investigated and recorded. […]
Please respond with reported IC50 for every item in the list.
Field: numeric (µM). Do not append units.

stdin: Any idea what its IC50 is? The compound is "COc1cc(F)cc(Oc2cc(Cl)cc(NC(=O)c3cc4cc(NS(C)(=O)=O)c(Cl)cc4s3)c2)c1"
stdout: 0.021

stdin: Repeat with "CS(=O)(=O)Nc1ccc2sc(C(=O)Nc3cc(Cl)cc(Oc4ccc(Cl)cc4Cl)c3)cc2c1"
stdout: 0.13

stdin: What do we get for "CC(C)Oc1cc(CN2CCN(C(=O)C(C)(C)C)CC2)cc(C(C)(C)c2cc(Cl)cc(NC(=O)c3cc4cc(NS(C)(=O)=O)ccc4s3)c2)c1" ?
stdout: 0.066

stdin: Ok, now "CN1CCN(Cc2cccc(C(C)(C)c3cc(Br)cc(NC(=O)c4cc5cc(NS(C)(=O)=O)ccc5s4)c3)c2)CC1"
stdout: 1.7
